Procedure Details: Determination of the maximum tolerated dose (MTD)
Details: mouse, in vivo, ip; B6D2F1/Jico mice, single intraperitoneal administration, survival over 14 days, doses 2.5 to 160 mg/kg; read-out: DMT (mg/kg) (Maximum Tolerated Doses)
Protocol: 2—Determination of the Maximum Tolerated Dose (MTD) The evaluation of the maximum tolerated dose was carried out on B6D2F1/Jico mice aged from 4 to 6 weeks. […] The value of the MTD (expressed in mg/kg) is determined from the observation of the survival rates of the animals over a period of 14 days after a single administration of the product under consideration. The change in the weight of the animals is also monitored over this period. […]
MTD at 14 days values, listed per item
Assay Endpoint: MTD at 14 days (mg/kg)

1. O=C1c2cccnc2-c2nccc3ccnc1c23 ... 10
2. COc1ccnc2c1C(=O)c1nccc3ccnc-2c13 ... 10
3. O=C1c2nccc(O)c2-c2nccc3ccnc1c23 ... 10
4. COc1ccnc2c1-c1nccc3ccnc(c13)C2=O ... 5
5. COc1ccnc2c1-c1nccc3c(OC)cnc(c13)C2=O ... 20
6. O=C1c2c(Cl)ccnc2-c2nccc3ccnc1c23 ... 20
7. CN(C)c1ccnc2c1-c1nccc3ccnc(c13)C2=O ... 10

---

Assay Endpoint: melting point

1. CN(C)c1cc(Cl)nc2c1-c1nccc3ccnc(c13)C2=O [CRL 8486] ... 246 °C
2. COc1cc(OC)c2c(n1)C(=O)c1nccc3ccnc-2c13 [CRL 8485] ... > 260 °C
3. COc1ccc2c(n1)C(=O)c1ncc(OC)c3ccnc-2c13 [CRL 8479] ... > 260 °C
4. CN(C)c1cnc2c3c(nccc13)-c1cccnc1C2=O [CRL 8481] ... > 260 °C
5. O=C1c2nc(O)ccc2-c2nccc3ccnc1c23 [CRL 8483] ... > 260 °C
6. COc1ccc2c(n1)C(=O)c1nccc3ccnc-2c13 [CRL 8484] ... > 260 °C
7. I.I.O=C1c2ncccc2-c2nccc3c(O)cnc1c23 [CRL 8487] ... > 260 °C
8. O=C1c2ncccc2-c2nccc3c(Cl)cnc1c23 [CRL 8480] ... > 260 °C
9. CCOC(=O)c1cnc2c(c1)-c1nccc3ccnc(c13)C2=O [CRL 8482] ... 246 °C

---

Procedure Details: Determination of the maximum tolerated dose (MTD)
Details: mouse, in vivo, ip; B6D2F1/Jico mice, single intraperitoneal administration, survival over 14 days, doses 2.5 to 160 mg/kg; read-out: DMT (mg/kg) (Maximum Tolerated Doses)
Assay Endpoint: MTD at 14 days

1. COc1cnc2c3c(nccc13)-c1cccnc1C2=O ... > 160 mg/kg
2. COc1cnc2c3c(nccc13)-c1ncccc1C2=O ... > 160 mg/kg
3. COc1cnc2c3c(nccc13)-c1c(N(C)C)ccnc1C2=O ... > 160 mg/kg

Data provenance is patent US6809096B1.
